target: Amine oxidase [flavin-containing] B (Rattus norvegicus); assay: In vitro inhibitory activity on rat brain MAO-B.
Sequence (P19643 whole entry): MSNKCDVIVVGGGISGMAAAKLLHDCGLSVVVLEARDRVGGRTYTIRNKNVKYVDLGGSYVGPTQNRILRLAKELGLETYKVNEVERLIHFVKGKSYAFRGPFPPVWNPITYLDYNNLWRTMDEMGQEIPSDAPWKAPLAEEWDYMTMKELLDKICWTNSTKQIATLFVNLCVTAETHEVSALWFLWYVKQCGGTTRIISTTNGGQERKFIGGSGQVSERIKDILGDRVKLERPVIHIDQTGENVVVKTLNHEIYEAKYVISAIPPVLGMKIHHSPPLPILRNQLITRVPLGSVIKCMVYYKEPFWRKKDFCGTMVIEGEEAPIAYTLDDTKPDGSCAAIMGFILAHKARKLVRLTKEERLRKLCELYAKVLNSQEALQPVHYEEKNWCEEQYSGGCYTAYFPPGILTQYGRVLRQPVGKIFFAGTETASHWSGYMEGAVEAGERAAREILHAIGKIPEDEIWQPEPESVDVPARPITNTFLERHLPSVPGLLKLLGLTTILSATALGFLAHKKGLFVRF
Measurement kind: pIC50
Formally, pIC50 is defined as -log10 of the concentration c, with c in mol/L.

# input Entry N#CCCN1N=C(c2ccc(OCc3ccc([N+](=O)[O-])cc3)cc2)OCC1=O has what pIC50?
# output 6.52

# input Then N#CCCn1nc(-c2ccc(OCc3ccccc3)cc2)oc1=O ?
# output 8.66

# input // query: COc1cccc(COc2ccc(-c3nn(CCC#N)c(=S)o3)cc2)c1
# output 7.00

# input Query COc1ccc(COc2ccc(-c3nn(CCC#N)c(=O)o3)cc2)cc1 next
# output 7.57

# input Now consider COc1cccc(COc2ccc(C3=NN(CCC#N)C(=O)CO3)cc2)c1 and answer again.
# output 7.17

# input Also N#CCCn1nc(-c2ccc(OCc3ccccc3)cc2)sc1=S ?
# output 7.80

# input Same question, N#CCCN1N=C(c2ccc(OCc3ccc(Cl)cc3)cc2)OCC1=O this time
# output 7.00

# input Proceed to COc1ccc(COc2ccc(-c3nn(CCC#N)c(=S)o3)cc2)cc1
# output 6.04

# input Another compound: N#CCCn1nc(-c2ccc(OCc3ccc(Cl)cc3)cc2)oc1=O
# output 8.12

# input Moving on to the next compound: Cc1ccc(COc2ccc(-c3nn(CCC#N)c(=S)o3)cc2)cc1
# output 6.40
